target: Mu-type opioid receptor (Homo sapiens, UniProt P35372); experiment: Displacement of [3H]diprenorphine from human mu opioid receptor in CHO cells
Sequence (P35372 whole entry): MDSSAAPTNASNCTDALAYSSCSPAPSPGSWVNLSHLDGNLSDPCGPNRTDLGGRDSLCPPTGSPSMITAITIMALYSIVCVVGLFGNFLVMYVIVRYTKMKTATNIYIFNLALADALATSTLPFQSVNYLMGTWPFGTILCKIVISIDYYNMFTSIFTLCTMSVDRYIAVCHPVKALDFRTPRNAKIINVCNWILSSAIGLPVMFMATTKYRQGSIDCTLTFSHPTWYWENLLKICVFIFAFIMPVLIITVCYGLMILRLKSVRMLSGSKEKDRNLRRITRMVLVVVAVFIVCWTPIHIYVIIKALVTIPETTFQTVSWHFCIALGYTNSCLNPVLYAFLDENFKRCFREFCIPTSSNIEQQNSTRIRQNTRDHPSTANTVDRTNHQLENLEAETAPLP
QUANTITY_KIND: Ki (µM)
Report as a plain number; the unit µM is understood.

Problem: Given the compound "C=CCN1C[C@H](C)N([C@H](c2ccc(C(=O)N(CC)CC)cc2)c2cccc(O)c2)C[C@H]1C" , what is its reported Ki?
Solution: 0.26

====

assay: Oral bioavailability in dog at 3 mg/kg; format: ADME, organism-based, Canis lupus familiaris; conditions: in vivo
QUANTITY_KIND: bioavailability (%)
Report as a plain number; the unit % is understood.

Problem: Given the compound "CCN(CC)C(=O)c1ccc(C2=CC3(CCNCC3)Oc3cccc(O)c32)cc1" , what is its reported bioavailability?
Solution: 66.5

====

test: Clearance in dog at 1 mg/kg, iv and 3.0 mg/kg, po; assay type: ADME, organism-based, Canis lupus familiaris; settings: in vivo
QUANTITY_KIND: clearance (mL/min/kg)
Report as a plain number; the unit mL/min/kg is understood.

Problem: Given the molecule CCN(CC)C(=O)c1ccc(C2=CC3(CCNCC3)Oc3cccc(O)c32)cc1 [ADL-5859] , what is its reported clearance?
Solution: 6.67

====

test: Half life in dog at 3.0 mg/kg, po; format: ADME, organism-based, Canis lupus familiaris; set-up: dose 3 mg/kg, route oral; conditions: in vivo
QUANTITY_KIND: half-life (h)
Report as a plain number; the unit h is understood.

Problem: Given the compound "CCN(CC)C(=O)c1ccc(C2=CC3(CCNCC3)Oc3cccc(O)c32)cc1" , what is its reported half-life?
Solution: 4.7

====

target: Delta-type opioid receptor (Homo sapiens); assay: biochemical
Sequence (P41143 whole entry): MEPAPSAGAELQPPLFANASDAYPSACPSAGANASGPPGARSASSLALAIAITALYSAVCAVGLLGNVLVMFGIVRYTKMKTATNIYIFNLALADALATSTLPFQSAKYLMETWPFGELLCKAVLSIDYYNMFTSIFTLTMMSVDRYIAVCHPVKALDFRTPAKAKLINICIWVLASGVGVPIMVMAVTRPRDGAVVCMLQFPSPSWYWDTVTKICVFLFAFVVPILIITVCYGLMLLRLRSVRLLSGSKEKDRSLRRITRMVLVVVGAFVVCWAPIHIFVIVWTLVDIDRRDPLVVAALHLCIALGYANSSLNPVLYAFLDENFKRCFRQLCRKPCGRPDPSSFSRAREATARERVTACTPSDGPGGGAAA
Description: Displacement of [3H]diprenorphine from human delta opioid receptor in CHO cells
QUANTITY_KIND: Ki (nM)
Report as a plain number; the unit nM is understood.

Sample records with Ki:
SUBSTANCE_SMILES: CCN(CC)C(=O)c1cccc(C2=CC3(CCNCC3)Oc3ccccc32)c1
Ki / nM: 330
--
SUBSTANCE_SMILES: CCN(CC)C(=O)c1ccc(C2=CC3(CCNCC3)Oc3c(O)cccc32)cc1
Ki / nM: 360

Moving on to another compound below.
Problem: Given the compound "C=CCN1C[C@H](C)N([C@H](c2ccc(C(=O)N(CC)CC)cc2)c2cccc(O)c2)C[C@H]1C" , what is its reported Ki?
Solution: 0.32

====

experiment: Volume of distribution at steady state in dog at 1 mg/kg, iv and 3.0 mg/kg, po; type: ADME, organism-based, Canis lupus familiaris; conditions: in vivo, read-out: Vdss
QUANTITY_KIND: Vd (L/kg)
Report as a plain number; the unit L/kg is understood.

Problem: Given the compound "CCN(CC)C(=O)c1ccc(C2=CC3(CCNCC3)Oc3cccc(O)c32)cc1" , what is its reported Vd?
Solution: 2.5

====

experiment: Fraction unbound in rat plasma protein at 2 uM; format: ADME, cell-free; conditions: read-out: PPB
QUANTITY_KIND: fraction unbound at 2 µM
Respond using a number only.

Problem: Given the molecule "CCN(CC)C(=O)c1ccc(C2=CC3(CCNCC3)Oc3cccc(O)c32)cc1" , what is its reported fraction unbound at 2 µM?
Solution: 0.159

====

target: Delta-type opioid receptor (Homo sapiens)
QUANTITY_KIND: log10(EC50) (log10 of the value in µM)
Field: value | Transform: log10 | Quantity: EC50 | Unit: µM

Sample records with log10(EC50):
SUBSTANCE_SMILES: N#Cc1ccc(C2=CC3(CCNCC3)Oc3ccccc32)cc1
log10(EC50): -0.70
--
SUBSTANCE_SMILES: C=CCN1C[C@H](C)N([C@H](c2ccc(C(=O)N(CC)CC)cc2)c2cccc(O)c2)C[C@H]1C
log10(EC50): -3.40
--
SUBSTANCE_SMILES: CCN(CC)C(=O)c1ccc(C2=CC3(CCN(C)CC3)Oc3ccccc32)cc1
log10(EC50): -1.05

Problem: Lab request: please report log10(EC50) under test system Delta-type opioid receptor (Homo sapiens) for "CCN(CC)C(=O)c1ccc(C2=CC3(CCNCC3)Oc3ccc(O)cc32)cc1"
Solution: -2.85

Problem: Lab request: please report log10(EC50) under test system Delta-type opioid receptor (Homo sapiens) for "O=C(O)c1ccc(C2=CC3(CCNCC3)Oc3ccccc32)cc1"
Solution: -0.66

Problem: Lab request: please report log10(EC50) under test system Delta-type opioid receptor (Homo sapiens) for "Oc1ccc(C2=CC3(CCNCC3)Oc3ccccc32)cc1"
Solution: -0.66

Problem: Lab request: please report log10(EC50) under test system Delta-type opioid receptor (Homo sapiens) for "CCN(CC)C(=O)c1ccc(C2=CC3(CCNCC3)Oc3cccc(O)c32)cc1"
Solution: -1.70

====

Catalogue of pIC50 readings, one per entry.
molecular target: Voltage-gated inwardly rectifying potassium channel KCNH2 (Homo sapiens, UniProt Q12809)
Sequence (Q12809 whole entry): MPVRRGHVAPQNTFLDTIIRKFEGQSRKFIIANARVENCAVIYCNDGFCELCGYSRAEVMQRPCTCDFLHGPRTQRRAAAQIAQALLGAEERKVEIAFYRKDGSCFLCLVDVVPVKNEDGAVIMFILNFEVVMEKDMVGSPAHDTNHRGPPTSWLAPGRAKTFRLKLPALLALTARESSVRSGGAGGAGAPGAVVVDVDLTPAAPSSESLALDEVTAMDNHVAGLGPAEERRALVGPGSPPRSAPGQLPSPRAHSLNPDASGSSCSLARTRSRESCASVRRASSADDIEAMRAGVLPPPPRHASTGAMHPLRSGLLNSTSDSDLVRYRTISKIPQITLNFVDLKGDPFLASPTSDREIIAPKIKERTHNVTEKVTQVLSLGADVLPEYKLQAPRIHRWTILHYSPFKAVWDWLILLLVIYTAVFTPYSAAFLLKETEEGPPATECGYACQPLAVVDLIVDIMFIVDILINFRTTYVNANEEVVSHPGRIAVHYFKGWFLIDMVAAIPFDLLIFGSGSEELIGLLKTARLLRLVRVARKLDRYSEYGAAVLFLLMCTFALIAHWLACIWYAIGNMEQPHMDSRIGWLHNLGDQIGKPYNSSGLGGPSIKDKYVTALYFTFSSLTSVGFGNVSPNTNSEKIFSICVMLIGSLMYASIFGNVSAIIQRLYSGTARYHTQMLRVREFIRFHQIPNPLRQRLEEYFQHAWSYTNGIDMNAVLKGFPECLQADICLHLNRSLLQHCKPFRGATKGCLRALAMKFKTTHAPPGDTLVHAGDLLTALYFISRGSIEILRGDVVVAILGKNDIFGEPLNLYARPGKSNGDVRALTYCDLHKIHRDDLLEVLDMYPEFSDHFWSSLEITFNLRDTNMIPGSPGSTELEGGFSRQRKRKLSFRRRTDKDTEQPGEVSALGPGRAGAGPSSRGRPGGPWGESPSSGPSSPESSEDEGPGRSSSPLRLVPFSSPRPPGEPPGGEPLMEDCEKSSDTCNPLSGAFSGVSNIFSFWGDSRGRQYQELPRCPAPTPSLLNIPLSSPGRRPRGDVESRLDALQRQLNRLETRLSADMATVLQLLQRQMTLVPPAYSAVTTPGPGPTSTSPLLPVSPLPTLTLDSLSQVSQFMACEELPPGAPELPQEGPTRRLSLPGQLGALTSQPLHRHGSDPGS
As a rule, pIC50 stands for the negative log10 of the concentration, concentration in M.

Sample records with pIC50:
SUBSTANCE_SMILES: CCN(CC)C(=O)c1ccc(C2=CC3(CCNCC3)Oc3ccc(O)cc32)cc1
QUANTITATIVE_RESULT: 4.70

SUBSTANCE_SMILES: CCN(CC)C(=O)c1ccc(C2=CC3(CCN(C(C)=O)CC3)Oc3ccccc32)cc1
QUANTITATIVE_RESULT: 4.32

SUBSTANCE_SMILES: CCN(CC)C(=O)c1ccc(C2=CC3(CCNCC3)Oc3cccc(O)c32)cc1
QUANTITATIVE_RESULT: 4.11

Moving on to another compound below.
Problem: Given the compound "Oc1ccc(C2=CC3(CCNCC3)Oc3ccccc32)cc1" , what is its reported pIC50?
Solution: 6.19

====

assay: Fraction unbound in human plasma at 2 uM; assay type: ADME, cell-free; conditions: read-out: PPB
QUANTITY_KIND: fraction unbound at 2 µM
Respond using a number only.

Problem: Given the molecule "CCN(CC)C(=O)c1ccc(C2=CC3(CCNCC3)Oc3cccc(O)c32)cc1" , what is its reported fraction unbound at 2 µM?
Solution: 0.419

====

target: Mu-type opioid receptor (Homo sapiens, UniProt P35372); test: Displacement of [3H]diprenorphine from human mu opioid receptor in CHO cells at 10 uM; assay type: cell-based
QUANTITY_KIND: inhibition
Reply with the number, then its unit.

Sample records with inhibition:
SUBSTANCE_SMILES: C1=C(c2ccccc2)c2ccccc2OC12CCNCC2
QUANTITY_KIND: inhibition
RESULT: 42%
//
SUBSTANCE_SMILES: Cc1ccc(C2=CC3(CCNCC3)Oc3ccccc32)cc1
QUANTITY_KIND: inhibition
RESULT: 49%
//
SUBSTANCE_SMILES: C=CCN1C[C@H](C)N([C@H](c2ccc(C(=O)N(CC)CC)cc2)c2cccc(OC)c2)C[C@H]1C
QUANTITY_KIND: inhibition
RESULT: 25%
//
SUBSTANCE_SMILES: CCN(CC)C(=O)c1ccccc1C1=CC2(CCNCC2)Oc2ccccc21
QUANTITY_KIND: inhibition
RESULT: 12%
//
SUBSTANCE_SMILES: N#Cc1ccc(C2=CC3(CCNCC3)Oc3ccccc32)cc1
QUANTITY_KIND: inhibition
RESULT: 60%

Problem: Given the compound "CCN(CC)C(=O)c1ccc(C2=CC3(CCNCC3)Oc3c(O)cccc32)cc1" , what is its reported inhibition?
Solution: 4%
